- target.system: 5-hydroxytryptamine receptor 1A (Rattus norvegicus, UniProt P19327)
- Sequence (P19327 whole entry): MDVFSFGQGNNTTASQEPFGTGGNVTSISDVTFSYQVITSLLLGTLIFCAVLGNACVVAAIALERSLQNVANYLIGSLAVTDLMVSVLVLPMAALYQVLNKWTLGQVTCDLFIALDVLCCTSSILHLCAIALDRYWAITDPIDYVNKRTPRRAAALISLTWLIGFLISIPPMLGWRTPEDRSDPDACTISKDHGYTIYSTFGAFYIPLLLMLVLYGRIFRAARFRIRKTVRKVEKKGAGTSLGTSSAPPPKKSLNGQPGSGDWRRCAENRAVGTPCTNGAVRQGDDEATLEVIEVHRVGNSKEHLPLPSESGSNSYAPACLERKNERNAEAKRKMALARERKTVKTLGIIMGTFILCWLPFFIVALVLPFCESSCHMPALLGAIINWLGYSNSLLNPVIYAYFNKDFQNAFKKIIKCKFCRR
Field IC50: reported value for 5-hydroxytryptamine receptor 1A (Rattus norvegicus, UniProt P19327); entries drawn from several documents.
Binned IC50; ranges: lower level: < 2 nM; middle level: ≥ 2 nM and < 70 nM; upper level: ≥ 70 nM

| compound | discrete.label |
| --- | --- |
| N#Cc1ccc2[nH]cc(CCCCN3CCN(c4ccc5[nH]ccc5c4)CC3)c2c1 | lower level |
| O=C1CC2(CCCC2)CC(=O)N1OCCCN1CCN(c2ncccn2)CC1 | upper level |
| O=c1c2ccccc2ncn1CCCCN1CCN(c2nsc3ccccc23)CC1 | lower level |
| Cc1cccc(N2CCN(CCCCN3CSCC3=O)CC2)c1 | upper level |
| Oc1nc2ccc(CCN3CCN(c4cccc5ccccc45)CC3)cc2o1 | middle level |
| CC1SC(C)(C)C(=O)N1CCCCN1CCN(c2cn(-c3ccc(F)cc3)c3ccccc23)CC1 (stereo not given) | upper level |
| COc1ccc2c(c1)C=C(CCN1CCN(c3ccccc3)CC1)CC2 | middle level |
| COc1ccc(Br)c(OC)c1C(=O)NCCCCN1CCN(c2nsc3ccccc23)CC1.Cl | upper level |

Now turn to the next compound.
Which class does NC(=O)c1ccc2[nH]cc(C3=CCC(NCCCCCCNC4CC=C(c5c[nH]c6ccc(C(N)=O)cc56)CC4)CC3)c2c1 (stereo not given) fall in?
middle level
